Provenance of the data: ChEMBL document CHEMBL2311279

Assay: Drug level in Sprague-Dawley rat brain at 10 mg/kg, sc after 1 hr
Assay type: ADME, organism-based
Parameters: dose 10 mg/kg, route subcutaneous
Conditions: read-out: Drug uptake
Readout Name: concentration at 1 h (ng/g)

record_smiles=CCNC(=O)c1ccc2nc(C)c3nnc(-c4cnccc4C)n3c2c1 recorded_value=98

(P) Cc1nc2ccc(CN3CCOCC3)cc2n2c(-c3ccccc3Cl)nnc12
(Q) CCNCc1ccc2nc(C)c3nnc(-c4ccccc4Cl)n3c2c1
I need your help: which of the pair P , Q has higher concentration at 1 h? State your choice using its label.
Q

---

Test: Ratio of drug level brain to plasma in Sprague-Dawley rat at 10 mg/kg, po after 1 hr
Assay type: ADME, organism-based
Design: dose 10 mg/kg, route oral
Details: read-out: BPR
Readout Name: Kp at 1 h
Please state the value as a number alone, without comment.

Kp at 1 h for CCNC(=O)c1ccc2nc(C)c3nnc(-c4cncc(OC)c4)n3c2c1 is 0.034
